Test system: T.T
PROTOCOL DETAILS: Cell proliferation assay (Alamar Blue)
Type: cell-based
CONDITION DETAILS: Homo sapiens, TT, 144 h; T.T tumor cell line; 6 days
Listing: IC50 of selected compounds
# number only, unit µM dropped from output

Cc1ccc(F)c(NC(=O)Nc2ccc(-c3cccc4c3c(N)nn4C(=O)C[C@H](N)C(=O)O)cc2)c1 :: 4.37
Cc1ccc(F)c(NC(=O)Nc2ccc(-c3cccc4c3c(N)nn4C(=O)C[C@H](N)C(=O)N[C@@H](CCC(=O)N[C@@H](CCC(=O)N[C@@H](CCC(=O)N[C@@H](CCC(=O)N[C@@H](CCC(=O)N[C@@H](CCC(=O)N[C@@H](CCC(=O)N[C@@H](CCC(=O)N[C@@H](CCC(=O)O)C(=O)O)C(=O)O)C(=O)O)C(=O)O)C(=O)O)C(=O)O)C(=O)O)C(=O)O)C(=O)O)cc2)c1 :: 19.8

Field: next compound
Query: What reported IC50 corresponds to `Cc1ccc(F)c(NC(=O)Nc2ccc(-c3cccc4c3c(N)nn4C(=O)C[C@H](N)C(=O)N[C@@H](CCC(=O)O)C(=O)O)cc2)c1` on T.T?
Response: 5.22
